Assay: yeast display, Sf9 membrane polyspecificity reagent, FACS + sequencing; frameworks hold sequencing errors
readout label: polyreactivity (PSR sort gate)

Previously resolved entries follow.
QDQLVESGGGLDQAGGRLRLSCAASGFTFGRNAMGWYRPAPGKERELDAASSWSGGSTYYADSVKGRFTISRDYAKNTVYVQMNSLKPEDTAVYYCNKRSRLGRGNRDYWGQGTQVTVSS; high polyreactivity
QVQLVESGGGLVQAGGSLRLSCAASGSIFLDNAMGWYRPAPGKERELVAAISRRGGTTYYADSVKGRFTISRDNAKNTVYLQLNSLIPEDTAVYYCAARYPGGKYYSYTYNYWGQGTQVTVSS; high polyreactivity
QVQLEESGGGLVQAGGSLRLICAASGGIFRYYAMGWSRQAPGKERELVAAITQSGARTYYADSVKGRFTISRDNAKNTVYLQMNSMKPEDTAVYYCAADRTGSRYNSWGQGTQVTVSS; high polyreactivity
QVQLVESGGGLVQAGGSLRLSCAASGSTFHRYAKGSYRQAPGKERELVARIIGSGGSTYYADSVKGRFTISRDNAKNTVYLQMNSLKPEDTAVYYCAADGLYYTYGYDYWGQGTQVTVSS; low polyreactivity

Turning to the following sequence.
Give polyreactivity (PSR sort gate) for the following sequence: QVQLVESGGGLVQAGGSLRLSCAASGGIFTKNAMGWYRQAPGKERELVAGISRTGGNTYYADSVKGRFTISRDNAKNTVYLQMNSLKPEDTAVYYCHWAKWYRYGGYRSRYDYWGQGTQVTVSS low polyreactivity
